- Organism: Rattus norvegicus
- test summary: DrugMatrix - Regimen: Daily Repeat
- Format: toxicity, organism-based, Sprague-Dawley
- Design: regimen Daily Repeat, gender Male, age 6-8 weeks
- experimental parameters: in vivo, po, 0 mg/kg, 120 h, tissue Blood, route oral GAVAGE, dose level Control, time 5 day, vehicle 100 % WATER
outcome measure: ABSOLUTE MONOCYTE (CELLS/uL)
A number alone suffices; assume CELLS/uL.

// worked examples, ABSOLUTE MONOCYTE included
molecule=CCOC(N)=O outcome_measure="ABSOLUTE MONOCYTE" reported_value=351
molecule="CC[C@H]1OC(=O)[C@H](C)[C@@H](O[C@H]2C[C@@](C)(OC)[C@@H](O)[C@H](C)O2)[C@H](C)[C@@H](O[C@@H]2O[C@H](C)C[C@H](N(C)C)[C@H]2O)[C@](C)(OC)C[C@@H](C)C(=O)[C@H](C)[C@@H](O)[C@]1(C)O [CLARITHROMYCIN]" outcome_measure="ABSOLUTE MONOCYTE" reported_value=82.67
molecule=CCCCCCCCCCCCCCCC[n+]1ccccc1.[Br-] outcome_measure="ABSOLUTE MONOCYTE" reported_value=106.33
molecule="Cc1c(N(C)CS(=O)(=O)[O-])c(=O)n(-c2ccccc2)n1C.[Na+] [DIPYRONE SODIUM]" outcome_measure="ABSOLUTE MONOCYTE" reported_value=122.33
molecule=CNS(=O)(=O)Cc1ccc2[nH]cc(CCN(C)C)c2c1 outcome_measure="ABSOLUTE MONOCYTE" reported_value=131.33
molecule="O=C(O)c1cccnc1 [NIACIN]" outcome_measure="ABSOLUTE MONOCYTE" reported_value=180.83
molecule="CC[C@H]1OC(=O)[C@H](C)[C@@H](O[C@H]2C[C@@](C)(OC)[C@@H](O)[C@H](C)O2)[C@H](C)[C@@H](O[C@@H]2O[C@H](C)C[C@H](N(C)C)[C@H]2O)[C@](C)(O)C[C@@H](C)CN(C)[C@H](C)[C@@H](O)[C@]1(C)O [AZITHROMYCIN]" outcome_measure="ABSOLUTE MONOCYTE" reported_value=194.33
molecule="Nc1ccc(S(=O)(=O)Nc2nccs2)cc1 [SULFATHIAZOLE]" outcome_measure="ABSOLUTE MONOCYTE" reported_value=69.67

// below: ABSOLUTE MONOCYTE requested for another molecule
Record CCN(CC)CC#CCOC(=O)C(O)(c1ccccc1)C1CCCCC1 (centres undefined) [OXYBUTYNIN] , field ABSOLUTE MONOCYTE: 92.33
